Target or system: Integrin alpha-4 (Homo sapiens, UniProt P13612)
Sequence (P13612 whole entry): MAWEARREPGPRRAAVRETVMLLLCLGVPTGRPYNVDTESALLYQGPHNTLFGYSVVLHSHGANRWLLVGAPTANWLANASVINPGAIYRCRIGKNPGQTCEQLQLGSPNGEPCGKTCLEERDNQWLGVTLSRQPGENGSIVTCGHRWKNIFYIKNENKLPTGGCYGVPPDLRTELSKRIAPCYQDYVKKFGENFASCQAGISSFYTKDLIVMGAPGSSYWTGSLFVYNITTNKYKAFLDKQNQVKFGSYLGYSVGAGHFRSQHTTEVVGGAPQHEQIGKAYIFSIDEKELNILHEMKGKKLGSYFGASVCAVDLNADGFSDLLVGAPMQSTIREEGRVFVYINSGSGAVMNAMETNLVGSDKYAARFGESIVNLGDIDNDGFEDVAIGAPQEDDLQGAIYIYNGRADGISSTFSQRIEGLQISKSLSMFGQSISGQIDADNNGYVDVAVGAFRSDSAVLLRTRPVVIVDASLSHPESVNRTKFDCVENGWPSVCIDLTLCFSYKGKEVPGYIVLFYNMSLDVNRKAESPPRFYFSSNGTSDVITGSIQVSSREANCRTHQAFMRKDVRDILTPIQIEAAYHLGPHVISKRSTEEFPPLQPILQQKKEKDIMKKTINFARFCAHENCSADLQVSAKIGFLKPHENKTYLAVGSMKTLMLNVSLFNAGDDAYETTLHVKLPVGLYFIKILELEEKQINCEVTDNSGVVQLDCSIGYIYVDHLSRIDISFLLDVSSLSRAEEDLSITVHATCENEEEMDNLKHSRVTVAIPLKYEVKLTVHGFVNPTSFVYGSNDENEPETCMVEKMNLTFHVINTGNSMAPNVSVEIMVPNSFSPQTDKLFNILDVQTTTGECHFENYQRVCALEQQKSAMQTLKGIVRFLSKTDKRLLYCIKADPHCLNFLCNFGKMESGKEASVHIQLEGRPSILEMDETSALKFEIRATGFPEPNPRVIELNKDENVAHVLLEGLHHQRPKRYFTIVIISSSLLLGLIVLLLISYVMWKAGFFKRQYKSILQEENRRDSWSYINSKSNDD
Assay text: Compound was evaluated for VCAM-VLA-4 antagonistic activity using Ramos cell assay
Format: functional, cell-based
Property: pIC50
Keep in mind that pIC50 stands for -log10 of concentration in molar terms.

CC(=O)N1CCC(c2ccc(O)cc2)C1C(=O)N[C@H]1CCSC[C@@H](C(=O)O)NC(=O)C2(CCCC2)CCNC1=O (stereo partly drawn)    6.66
CC(=O)N1CCC(c2ccc(O)cc2)C1C(=O)N[C@H]1CSSC[C@@H](C(=O)O)NC(=O)C2(CCCC2)CCNC1=O (stereo partly drawn)    8.82

// moving on: another record for pIC50
Task: Report pIC50 for CC(=O)N1CCC(c2ccc(O)cc2)C1C(=O)N[C@H]1CSCC[C@@H](C(=O)O)NC(=O)C2(CCCC2)CCNC1=O (stereo partly drawn) please.
Output: 7.70
